assay: solvent given as SMILES; details: in CS(C)=O
Observed Property: emission maximum
Reply with a number, then the unit it belongs to.

emission maximum lookup needed for `CCN(CC)c1ccc(/C=C/C2=[O+][B-](F)(F)Oc3c2c(=O)oc2cc(N(CC)CC)ccc32)cc1` , thanks.
659 nm

And then `O=C1/C(=C2\Sc3ccc(S(=O)(=O)Cl)cc3C2=O)Sc2ccc(S(=O)(=O)Cl)cc21` , what is it?
624 nm

What do you have for `C(=C\c1ncc2ccccc2n1)/c1ccc(N(c2ccccc2)c2ccccc2)cc1` ?
547 nm

Now give it for `CCCCCn1c2ccc(S(=O)(=O)O)cc2c(=O)c2cc(S(=O)(=O)O)ccc21` too.
421 nm

And then `CCOC(=O)CN1C(=O)C2=C(c3ccc(C#N)cc3)N(CC(=O)OCC)C(=O)C2=C1c1ccccc1` , what is it?
547 nm

----------
Task for the reader: assign each of the following compounds its reported emission maximum.
assay: solvent given as SMILES; details: in ClCCl
Kindly provide the numeric value in nm only, without the unit symbol.

For `CCCCCCCCOc1ccc(C#Cc2ccc3oc4ccccc4c3c2)c(OCCCCCCCC)c1` , what is its reported emission maximum?
373

Request: O=C(c1ccc2c3c(cccc13)-c1cccc3c1C2CC=C3)c1c(CCc2ccccc2)c2ccc3cccc4c5cccc6ccc1c(c65)c2c34 (stereo not given)
527

Then this compound: `CCCCC1=C(CCCC)c2cccc3c2c(cc2nc4ccccc4nc23)O1`
567

Now consider `COC(=O)c1nc2c(N(C)C)nc(N)nc2n1Cc1ccccc1` and answer again.
393

Same for `CC1=CC(C)=[N+]2C1=Cc1c3ccccc3c(-c3[nH]c(C)cc3C)n1[B-]2(F)F`
631

----------
experiment: solvent given as SMILES; conditions: in CCO
Observed Property: emission maximum (nm)
// return numeric value only (unit: nm, not printed)

State the recorded emission maximum for this entry: `CCN(CC)c1cccc2c1ccc1c(=O)oc(-c3ccc(C(F)(F)F)cc3)cc12`
599

Similarly, `Oc1ccccc1/C=N/c1ccc(Cn2cncn2)cc1` ?
407

What about `COc1ccc2cc(-c3ccc(C(F)(F)F)cc3)oc(=O)c2c1` ?
412

Another molecule: `CC/[NH+]=c1\cc2oc3cc(NCCN)c4ccccc4c3nc-2cc1C`
647

Try this molecule too: `CCN(CC)c1ccc2cc(C#N)/c(=N\C(=O)C(C)C)oc2c1`
470

Now consider `CN1/C(=C/C=C(/C=C/C2=[N+](C)c3ccccc3C2(C)C)c2ccc(C(F)(F)F)cc2)C(C)(C)c2ccccc21` .
665

Record: `CCN(CC)c1ccc2c(c1)oc(=O)c1c(-c3ccccc3C(=O)O)c3ccc(=[N+](CC)CC)cc-3oc12`
637

Next entry: `Cc1ccc([C@@H]2C[C@](O)(c3ccccn3)C[C@](O)(c3ccccn3)[C@H]2C(=O)c2ccc(N(c3ccccc3)c3ccccc3)cc2)cc1`
511

Then this molecule: `CCN(CC)c1ccc2c(-c3ccccc3C(=O)O)c3c([o+]c2c1)/C(=C/Nc1ccccc1)CCC3`
641

Here is the next molecule: COC(=O)C(CCCCNC(=O)CCNc1cccc2ccccc12)NC(C)=O (centres undefined)
417

# repeat for `O=c1c2cc(F)c(O)cc2oc2cc(N3CCCCC3)c(F)cc12`
445

Repeat for the following molecule: `COc1cc2c(cc1F)c(=O)c1cc(F)c(OC)cc1n2Cc1ccccc1`
416

Follow-up item: `CCOC(=O)c1sc2nc(-c3ccccc3)c(C)c(C#N)c2c1N`
580

Now the molecule `CCCCC[n+]1ccc(/C=C/c2ccc(N(C)C)c3ccccc23)c2ccccc21`
670

Cool, now `CN(C)c1ccc(/C=C/C=C2\CC/C(=C\c3ccc(N(C)C)cc3)C2=O)cc1`
725

Then this molecule: `Nc1ccc(/C=C2\OC(=O)c3ccccc32)cc1`
552.49

Query `Cc1ccc2cc3c(=O)n(C)c(=O)n(C)c3nc2c1` next
409

Likewise for `CCNc1cc2oc3c/c(=[NH+]\CC)c(C)cc-3c(-c3ccccc3C(=O)OCC)c2cc1C` ?
552

One more molecule: `CC1=CC(C)=[N+]2C1=C(c1c3ccccc3c(C)c3ccccc13)c1c(C)cc(C)n1[B-]2(F)F`
516

What would you report for `c1ccc(-c2c3ccccc3c(-c3cncnc3)c3ccccc23)cc1` ?
441

Can you check Cc1c2oc3c(C)c(N)cc(C(=O)NC4OC(=O)C(C(C)C)N(C)C(=O)CN(C)C(=O)C5CCCN5C(=O)C(C(C)C)NC4=O)c3nc-2c(C(=O)NC2OC(=O)C(C(C)C)N(C)C(=O)CN(C)C(=O)C3CCCN3C(=O)C(C(C)C)NC2=O)c(N)c1=O (centres undefined) next?
669

COC(=O)C(NC(=O)CCNc1cccc2ccccc12)C(C)C (centres undefined) , same question.
415

Same question for `CCC1(CC)c2cc(C=O)ccc2-c2ccc(N(C)C)cc21` please.
562

Moving on to the next molecule: `CC1=CC(C)=[N+]2C1=C(c1ccc(-c3c4ccccc4c(-c4ccccc4)c4ccccc34)cc1)c1c(C)cc(C)n1[B-]2(F)F`
510

Then `Cc1c(COC(=O)Cc2c[nH]c3ccccc23)n2c(OCC(=O)Cc3c[nH]c4ccccc34)c(C)c(=O)n2c1=O` ?
452

What do we get for `Cc1cc(=O)oc2cc3cc(O)ccc3cc12` ?
466

// next record `N#CC(C#N)=Cc1ccc(-c2ccc(-c3nc4ccccc4s3)c(O)c2)s1`
499

And what about the molecule `Nc1ccc2cc(-c3ccc(C(F)(F)F)cc3)oc(=O)c2c1` ?
460

Likewise for `CN(C)c1cc2c(cc1F)c(=O)c1cc(F)c(N(C)C)cc1n2C` ?
441

Record: `CC(C)Nc1cc2c(cc1F)c(=O)c1cc(F)c(NC(C)C)cc1n2C`
421

Again, but for `c1ccc2sc(-c3ccc(-c4nnc(-c5ccc(-c6nnc(-c7ccc(-c8cc9ccccc9s8)s7)o6)cc5)o4)s3)cc2c1`
400

// same read-out, input: `CC1(C)CC(=O)c2ccccc2N1`
483

Param item: `Cc1cc2ccc(-c3cccc4cccc(-c5ccc6cc(C)c(=O)oc6c5)c34)cc2oc1=O`
442

Next: `Cc1cc(C)nc(N)n1`
337

Then what about the molecule `Nc1ncnc2c1c(C#Cc1ccc3ccccc3c1)cn2[C@H]1C[C@H](O)[C@@H](CO)O1` ?
371

For `COc1ccc(-c2c3ccc(=[N+]4CCCCC4)cc-3oc3cc(N4CCCCC4)ccc23)cc1` then?
582

Moving on to `CC1(C)Nc2cc(Cl)ccc2-c2[nH]c3ccccc3c(=O)c21`
506

Quick one: `CC(=O)c1c2c(cc3cc(N(C)C)ccc13)CCC2`
605

// next record `CN(C)c1ccc(/C=C/c2ccc(C#N)cc2)cc1`
524
